Sourced from patent US20260258115A1

- assay-system: RSV prefusion F (preF), DS-Cav1 (respiratory syncytial virus, UniProt P03420 26-513)
- assay-name: BLI, IgG on sensor, 100 nM antigen
quantity-kind: Kd (nM)
Please respond with the number in nM and leave the unit unwritten.

Request: Given ADI-41442 (antibody, V domains shown, IgG1; also called Ab 726) VH: EVQLLESGGGLVQPGRSLRLSCAASGFTFDDYAMHWVRQAPGKGLEWVSGISWHSGSIVYADSVKGRFTISRDNAKNSLYLQMSSLRAEDTALYYCVKDHYNWNDNPHFHYGLDVWGQGTTVTVSS VL: EIVLTQSPATLSVSPGERATLSCRASQSVISNLAWYQQKPGQAPRLFIYGASTRATGIPARFSGSGSGTEFTLTISSLQSEDFAVYFCQQYNNWPITFGQGTRLEIK , state its recorded Kd.
Response: 0.521

Request: Quick one: Kd for ADI-41393 (antibody, V domains shown, IgG1; also called Ab 687) VH: QVQLVQSGAEVKKPGESLKISCKGSGYSFTSYWIGWVRQMPGKGLEWMGIIYPGDSDTRYSPSFQGQVTISADKSTSTAYLQWSSLKASDSAMYYCARSEFSSSFDFWGQGTLVTVSS VL: NFMLTQPHSVSESPGKTVTISCTGSSGSIASYYVQWYQLRPGSAPTTVIYEDNQRLSGVPDRFSGSIDSSSNSASLTISGLKTEDEADYYCQSYRSGIPWVFGGGTKLTVL ?
Response: 1.67

Request: Given the entry ADI-41425 (antibody, V domains shown, IgG1) VH: EVQLLESGPAVVKPTQTLTLTCTVSGLSLSSPRMSVSWIRQPPGKGLEWLARIDWDGDKYYGTSLKTRLSISKDTSKNQVVLTMTNMDPVDTGTYYCAQTSIYASNAYYLARLDPWGQGMLVTVSS VL: EIVMTQSPSLLSASVGDRVTITCRASQNIATYLNWYQQKPGKAPRLLIYAASNLQSGVPSGFSGSGSGTVFTLTISSLQPEDFATYFCQQSYETSLTFGGGTKVEIK , report its measured Kd.
Response: 1.14

Request: Name the recorded Kd for ADI-41431 (antibody, V domains shown, IgG1; also called Ab 715) VH: QVQLVQSGAEVKKPGASVRVSCTASGYRFFTYGITWVRQAPGQGLEWMGWISAYNGNTKFAQKFQGRLTMTTDAPTSTADMELRGLRSDDTAVYYCAREEGGYHGTGSNNYWGQGTLVTVSS VL: QSVLTQPPSVSAAPGQKVTISCSGSGSNVGGNDVSWYQQFPGTAPKLLIYDNSKRPSGIPDRFSGSKSGTSATLVITGLQTGDEADYYCGTWDSSLSVGVFGTGTKLTVL .
Response: 0.744

Request: Query: Kd; subject: ADI-41355 (antibody, V domains shown, IgG1) VH: EVQLVESGGGLVKPGGSLRLSCTASGFTFSDYYMNWIRQAPGKGLEWVSYISGDGNTIYYTDSVKGRFTISRDNAKNSLFLQMNSLRGEDSAVYYCAGPVRGYTYGIFDYWGQGALVTVSS VL: YYVLTQPPSVSVAPGQAARITCGGNNIGSRSVNWYQQKPGQAPVVVIYGDSVRPSGIPERFSGSNSGNTATLTFSRVEAGDEADYYCQVWETNSDHPVVFGGGTKVTVL
Response: 3.84

Request: Entry ADI-41440 (antibody, V domains shown, IgG1; also called Ab 724) VH: EVQLVESGGGLVKPGGSLRLSCAVSGFTFSDYTMNWVRQAPGKGLEWVSSISGSGTYIYYGDSVKGQFTISRDNAKNSLYLQMNSLRAEDTAVYYCARELPAKTIFGVDFLGGTTAYDCWGQGTPVTVSS VL: EIVLTQSPATLSVSPGERATLSCRASQSVSSNLAWYQQKPGQAPRLLIYSATTRATGVPARFSGSGSGTEFTLTISSLRSEDFAVYYCQQYNNGGTFGPGTKVEIK has what Kd?
Response: 3.18

Request: Give its Kd value. Item: ADI-41436 (antibody, V domains shown, IgG1; also called Ab 720) VH: EVQLLESGGGVVQPGRSLRLSCAASGFTFSDYAMHWVRQAPGKGLEWVALISFDGSNEYYADSVKGRFTISRDNSRNTVYLQVNTLRPDDTAVFYCARDSHLRLTTRGWGSFDYWGQGTLVTVSS VL: NFMLTQPHSVSESPGKTVTIACTRSSGSIARNYVQWYQQRPGRSPTMVIYEDNQRPSGVPDRFSGSIDTSSNSASLTISGLKTEDEADYYCQPYDPDNLVFGGGTKLTVL
Response: 1.1

Request: Name the recorded Kd for ADI-41450 (antibody, V domains shown, IgG1) VH: EVQLVESGGGLVKPGGSLRLSCAASGFAFSSYGINWVRQVPGKRLEWVSSISGGSSFINYADSVKGRFTISRDNAGNSVYLQMNSLRAEDTAVYFCARESYGSGSSLNWFDPWGQGTLVTVSS VL: QSVLTQPPSVSGAPGQRVTISCTGSGSNIGAGYDVHWYQQLPGIAPRLVIFGNRNRPSGVPDRISGSKSDTSASLAITGLQAEDEGDYYCQSYDKRLSGWVFGGGTKLTVL .
Response: 0.613

Request: Look up Kd for this binder: ADI-41451 (antibody, V domains shown, IgG1; also called Ab 735) VH: EVQLVESGGGLVQPGGSLRLSCAAAGFTFNNYEMHWVRQAPGKGLEWVSCVTSSGTATYYADSVKGRFTVSRDNAKKSLQLQMNSLRAEDTAVYYCARELYLGEDYYYGLDVWGQGTTVTVSS VL: SYELTQPPSVSVSPGQTASISCSGDKLRNKHTCWYQHKSGQSPVLLIYQDNRRPSGIPDRLSGSKSGTTATLTISWTQAMDEAEYYCQAWDSNSAVIFGGGTKLTVL
Response: 1.82
